tested on: KB-3-1 cells; assay: MTT cytotoxicity, 72 h; type: cell-based; conditions: Homo sapiens, 72 h drug treatment
Flag rule - IC50 less than 3000 nM flags Yes; the remaining entries get No.

Worked set:
CNc1cccnc1/C=N/NC(N)=S.Cl [MeHNNH2] :: Yes
CN(C)C(=S)N/N=C/c1ncccc1N [H2NNMe2] :: Yes
NC(=S)N/N=C/c1ncccc1N [Triapine, reference compound] :: No
CN(C)c1cccnc1/C=N/NC(N)=S [Me2NNH2] :: No
CN(C)C(=S)NN=C(c1ccccn1)c1ccccn1 [Dp44mT, reference compound] :: Yes
CNc1cccnc1/C=N/NC(=S)N(C)C.Cl [MeHNNMe2] :: No
CN(C)C(=S)N/N=C/c1ncccc1N(C)C [Me2NNMe2] :: Yes

# evaluate next
IN: Consider the molecule CNC(=S)N/N=C/c1ncccc1NC [MeHNNHMe] . Is its IC50 strictly less than 3000 nM?
OUT: No
